molecular target: T1, recombinant uPAR-Biotin (human, UniProt Q03405 23-305, biotin); assay: BLI; BLItz; streptavidin biosensors coated with 16.7 μg/mL recombinant uPAR-Biotin; 400nM, 200nM and 100nM of VH, VH-Fc, DbTE, association 2 min; dissociation in DPBS 4 min; conditions: both partners purified
T1 construct: May be one of the bought proteins (uPAR-His or uPAR-Fc) after biotinylation
T1 sequence (Q03405 23-305): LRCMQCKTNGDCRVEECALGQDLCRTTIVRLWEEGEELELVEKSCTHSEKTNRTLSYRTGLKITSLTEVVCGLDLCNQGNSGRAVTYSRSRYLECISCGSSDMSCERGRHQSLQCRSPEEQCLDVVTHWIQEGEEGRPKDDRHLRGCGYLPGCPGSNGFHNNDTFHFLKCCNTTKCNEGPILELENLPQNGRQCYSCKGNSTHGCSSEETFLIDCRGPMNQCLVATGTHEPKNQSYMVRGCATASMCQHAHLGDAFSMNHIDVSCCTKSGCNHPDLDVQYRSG
Field: Kd. Provide a value for each of the binders that follow.
Field: numeric (nM). Do not append units.

Q: What Kd value was documented for this binder, VH-Fc 3 (Fc fusion, human, VH 3 domain, as m1; VH cloned into the pcDNA-IgG1 Fc vector; source: Expi293, transiently transfected, purified by protein A resin; not shown: Fc (human IgG1), C-terminal, kept) VH: EVQLVESGGGLVQPGGSLRLSCAASGFTFSRYWMSWVRQAPGKALEWIGEINHSGSTNYNPSLKSLVTISRDNSKNTLYLQMNSLRAEDTATYYCARSLVPALSYYYYYGMDVWGQGTTVTVSS ?
Ans: 9.6

Q: Can you check VH 3 (VHH, Human single VH domain antibody (not a camelid VHH); Monomeric by SEC; also called clone 3; anti-uPAR VH 3; source: E.coli TopF expression system, purified on Ni-NTA columns) VHH: EVQLVESGGGLVQPGGSLRLSCAASGFTFSRYWMSWVRQAPGKALEWIGEINHSGSTNYNPSLKSLVTISRDNSKNTLYLQMNSLRAEDTATYYCARSLVPALSYYYYYGMDVWGQGTTVTVSS next?
Ans: 17.1

Q: Now consider VH-Fc 115 (Fc fusion, human, VH cloned into the pcDNA-IgG1 Fc vector; source: Expi293, transiently transfected, purified by protein A resin; not shown: Fc (human IgG1), C-terminal, kept) VH: EVQLVESGGGLVQPGGSLRLSCKGSGFTFGDYAIGWVRQAPGQRLEWIGWINTNSGSPKYAQGFTGRFTISRDNSKNTLYLQMNSLRAEDTAVYYCATDVVVPWGQGSQVTVSS .
Ans: 71.1

Q: // query: VH 115 (VHH, Human single VH domain antibody (not a camelid VHH); source: E.coli TopF expression system, purified on Ni-NTA columns) VHH: EVQLVESGGGLVQPGGSLRLSCKGSGFTFGDYAIGWVRQAPGQRLEWIGWINTNSGSPKYAQGFTGRFTISRDNSKNTLYLQMNSLRAEDTAVYYCATDVVVPWGQGSQVTVSS
Ans: 1.7
